target_or_test_system: HMOX1 (heme oxygenase 1) (Homo sapiens, UniProt P09601)
Sequence (P09601 1-288): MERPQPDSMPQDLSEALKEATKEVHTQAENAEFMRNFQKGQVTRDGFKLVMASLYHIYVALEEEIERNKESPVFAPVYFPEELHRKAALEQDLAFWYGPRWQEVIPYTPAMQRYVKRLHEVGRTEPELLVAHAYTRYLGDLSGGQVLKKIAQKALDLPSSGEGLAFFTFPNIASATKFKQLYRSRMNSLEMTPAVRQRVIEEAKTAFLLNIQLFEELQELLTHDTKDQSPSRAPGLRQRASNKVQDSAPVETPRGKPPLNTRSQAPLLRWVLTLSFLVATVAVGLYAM
pKd: −log10 of the molar value.
observation_type: pKd

> print(dat)
                                   compound  observed.value
1  COc1cc(C2Oc3cc([C@H]4Oc5cc(O)cc(O)c5C(=O)[C@@H]4O)ccc3OC2CO)ccc1O (stereo partly shown) [SIL, Silibinin]            4.34
